# Test system: 786-0 renal
# ASSAY_METHOD_TEXT: NCI-60 one-dose screen, 48 h
# CONDITION_DETAILS: 10 µM unless noted
Compounds without any hit were thinned out: in the full panel of roughly 83,000, 20% have a hit. Activity calls are given as the source filed them. The calls were made as follows: active = growth percent below 10; inactive = the rest.
Your answer must be one of the following: active, inactive

These recorded examples may help you get a feel for the data.
COMPOUND: CC1([N+](=O)[O-])COP(=O)(Nc2ccc(F)cc2)OC1 (stereo not given)
TARGET_ENTITY: 786-0 renal
CLASS_ASSIGNMENT: inactive

COMPOUND: ClCCN(CCCl)c1nc(Cl)c(C2CC(c3ccc(Cl)cc3)=NN2c2cc(Cl)cc(Cl)c2)s1 (stereo not given)
TARGET_ENTITY: 786-0 renal
CLASS_ASSIGNMENT: inactive

COMPOUND: C[C@]12CC[C@H]3[C@@H](C[C@@H]4N=C(c5ccc(O)cc5)S[C@@]45C[C@H](O)CC[C@]35C)[C@@H]1CC[C@@H]2O
TARGET_ENTITY: 786-0 renal
CLASS_ASSIGNMENT: active

COMPOUND: CCC[CH2][Sn]([CH2]CCC)([CH2]CCC)[O]C(=O)CC
TARGET_ENTITY: 786-0 renal
CLASS_ASSIGNMENT: active

COMPOUND: C=CCc1ccc(OC(=O)Cc2ccccc2)c(OC)c1
TARGET_ENTITY: 786-0 renal
CLASS_ASSIGNMENT: inactive

COMPOUND: CC(=O)Nc1ccc(C=C2C(=O)NC(=O)NC2=O)cc1
TARGET_ENTITY: 786-0 renal
CLASS_ASSIGNMENT: inactive

## Input Hi team, can someone confirm the assay call for O=C(CI)Nc1ccc(Br)cc1 ?
## Output inactive

## Input Give the logged outcome of this assay for the following compound: Cc1cc([N+](=O)[O-])c(Cl)cc1NS(=O)(=O)c1ccccc1
## Output inactive

## Input Field: outcome | Entry: C[As](=O)(O)c1ccc(C(=O)O)cc1
## Output inactive

## Input What did the test return for CC1(C)N=C(N)N=C(N)N1c1ccc(CCCCc2ccc(Cl)cc2S(=O)(=O)F)c(Cl)c1 ?
## Output inactive

## Input Which outcome did this test record for the compound c1ccc(CCN2CCCCC2Cc2ccccc2)cc1 (stereo not given) ?
## Output inactive

## Input # fetch the recorded call for CCCCn1cc(C(=O)/C(C#N)=C/c2cc3ccccc3nc2Cl)c2cc(OC)ccc21 here
## Output inactive

## Input Query: recorded result category for CC(=O)N1N=C(c2ccccc2)CC1c1sc(N(CCCl)CCCl)nc1Cl (stereo not given) in this test
## Output inactive

## Input Name the outcome recorded for Cc1cccc(N(C)c2cccc3c2C(=O)[Se]C3)c1C in the assay.
## Output inactive

## Input Please share the test call associated with N#Cc1ncc(/N=C/c2ccc(N(CCCl)CCCl)cc2)s1 .
## Output inactive

## Input What outcome does the record of this test show for CC(=O)O[C@H]1C[C@H](O[C@H]2[C@@H](O)C[C@H](O[C@H]3[C@@H](O)C[C@H](O[C@H]4CC[C@@]5(C)C(CCC6C5C[C@@H](O)[C@]5(C)[C@@H](C7=CC(=O)OC7)CC[C@]65O)C4)O[C@@H]3C)O[C@@H]2C)O[C@H](C)[C@H]1O[C@@H]1O[C@H](CO)[C@@H](O)[C@H](O)[C@H]1O (stereo not given in full) ?
## Output active

## Input // param item: O=C(O)c1[nH]c(=O)[nH]c(=O)c1F ; yields the recorded call
## Output inactive

## Input For this compound, state the assay outcome: CC(C)OC(=S)[S-].[Au+].c1ccc([PH+](c2ccccc2)c2ccccc2)cc1
## Output active

## Input State the result this test recorded for CC(/C=N/N=C(N)N)=N/N=C(N)N .
## Output inactive

## Input Dear colleague, could you share the recorded outcome for O=C1NC(=O)C(=Cc2cn(Cc3ccccc3)c3ccccc23)C(=O)N1 when you have a moment?
## Output inactive
